Where do these numbers come from? They come from PubChem BioAssay (EPA / NIEHS).

Test: ATG_RORE_CIS: Attagene CIS-FACTORIAL HepG2 Assay for human RAR-related Orphan Receptor Element (RORE) (AID 2282959)
Conditions: HepG2 Attagene cis-factorial RORE reporter, mRNA; actives raise or lower the signal
The source made the active and inactive calls. The calls were made as follows: active = hit-call score of the fitted dose curve at least 0.9, where 1 is the maximum; inactive = score below 0.9.
In this exercise, the only acceptable responses are active, inactive

Observe how each entry below is paired with its result.
| Compound | Assigned class |
| --- | --- |
| Fc1ccc(Oc2ccnc3cc(Cl)cc(Cl)c23)cc1 | inactive |
| COc1nc(C)nc(NC(=O)NS(=O)(=O)c2ccccc2Cl)n1 | inactive |
| CCOc1cc(Oc2ccc(C(F)(F)F)cc2Cl)ccc1[N+](=O)[O-] | active |
| COP(=S)(OC)Oc1nc(Cl)c(Cl)cc1Cl | inactive |
| C#CCOS(=O)OC1CCCCC1Oc1ccc(C(C)(C)C)cc1 (configuration not stated) | active |
| COC(=O)N(OC)c1ccccc1COc1ccn(-c2ccc(Cl)cc2)n1 | active |

Name the outcome recorded for `CC(C)(C)c1ccc(CSc2cnn(C(C)(C)C)c(=O)c2Cl)cc1` in the assay.
active
